# test name: soluble on expression in E. coli; label from the status in PepcDB or PDB records
reported property: soluble on expression in E. coli

[[record]]
ordered_residues = "MGSDKIHHHHHHMSEIEAQLPVIHFADAKTFETWIAEQGSDCKGLWVKFAKKASGIASITPREALDVALCYGWIDGQRIGSDSDFYLNKYTPRRARSRWSQVNCARATELIAEGRMTPRGLAEVERARTDGRWDAAAPPPSKATVPDDLHDALAQNAAAKMLFDELDSRNRYAILFRIHDAKKSETRAARIEKYVGMLARGETPYPRRKAR"
reported_property = "soluble on expression in E. coli"
recorded_value = "not soluble"

[[record]]
ordered_residues = "MNGNRAQPMNMPNEPHPKLKLEQYLGIQIKRQRQAQELKLADVARIAGISQGMLSKIENAQVSTSLDNLSRLCDVLGMPMSKLFSQYDQQGSSALLVRADEGLEVVRRGTEKGHTYHLLNHTRGPKKSFEAYMVTMDDASEEFPTFSHPGTEFLHLLEGELIYRHGNQLYPMQAGDSLTFDGDIPHGPEQLVQVPIKLLSIMNYGAQGD"
reported_property = "soluble on expression in E. coli"
recorded_value = "not soluble"


* * *

# test name: soluble on expression in E. coli; label from the status in PepcDB or PDB records
reported property: soluble on expression in E. coli

[[record]]
ordered_residues = "MGHHHHHHSHMAGEKAQKKGKEKWKEKTWYTVESPPYLGSKEVTVALGEDPESMVNRIVEVPISDLTGNFKKSNEKALFRITGCEGTKCKTIFIGHYIGDDYIRRLVRRRKERIDIIEDVKTSDGSIITVKIVVVSDGKLTNTKKSEIRKALTSFIVSKGSQLSYADFVRYLIGDDSYNDMVEATKNIYPLRKIEIRKSELVSLSGMQEPQKNEPAPGGEAIAQN"
recorded_value = "not soluble"

[[record]]
ordered_residues = "MAHHHHHHMSTKYIIEHLDELEEWCIHEYIHICETVRDENVIFTKFCENFSELTNGKYKPACYEKSIDELKNELLSGNICLLDMKAKNKLTCNDKNKIDFLLFGGILGNVPSDDRTSILRNFNFPISRNLGPIQMTTNTAVLVCYIILNDNVELENIPYVDDPEIFLKNNKESITLPFRFVSKYYYTKCEQDKNVPVLPEKFKEYLIKLGDQQFDDMSSFLENEDN"
recorded_value = "not soluble"

[[record]]
ordered_residues = "PLEKTVRLHSSSGTTGNPTVILHTQKDLDEWANAVARCLYMVGLRPGDIFQNSSGYGMFTGGLGFQYGAERLGMLTVPAAAGNTKRQLKFISDFGTTALHAIPSYAARMYEIMQEMGIDPRRDTKLRTLIIGAEPHSEEQRRRIEDMLGVKAYNSFGMSEMCGPGVAFECQEQNGLHIW"
recorded_value = "not soluble"


* * *

# test name: soluble on expression in E. coli; label from the status in PepcDB or PDB records
reported property: soluble on expression in E. coli

[[record]]
ordered_residues = "MDFLEKVLDNQVTESKELVRLYDYDLYTLGEVADRMRQNMHQKIVYFNVNRHLNPSNICADACKFCAFSAHRKNPNPYEMSLEEILEKVKNSYNKGIKEVHIVSAHNPNYSYEWYLKVFETIKQEMPNLHLKAMTAAEVHFLSVKFNKPFELVLEDMLKAGVDSMPGGGAEIFDEEIRRKICNGKVGSSRWLEIHAYWHKLGKMSNATMLFGHIENKIHRIDHMLRIKKIQSPKNQVENKEGGFNAFIPLLYQKENNYLNVEKSPSAIEILKTIAISRILLNNIPHIKAYWATLGLNLALVAQEFGANDLDGTIEIESIQSAAGAKSRHGLEKEDLIFKIKDAGFVAVERDSLYNFIQKF"
reported_property = "soluble on expression in E. coli"
recorded_value = "not soluble"

[[record]]
ordered_residues = "MSLEISASIIDISENALEQLGVDWRLHNSRFDLQTGNGTNTMLNNPGSLDSVATTAGAAAAIAATPAGGVLSAVIGGGSRYLMARISALQQTDQARITANPKVATLDNTEAVMDNRQNFYVPVAGYQSADLYAISAGVSLRVLPMVVMDGGTVRIRMNVHIEDGQITSQQVGNLPITSQSEIDTQALINEGDSLLIAGYSVEQQSKSVDAVPGLSKIPLVGALFRTDQTTGKRFQRMFLVTPRVITEGHHHHHH"
reported_property = "soluble on expression in E. coli"
recorded_value = "not soluble"


Reference source: the DeepSol protein solubility set
